# Method: self-splicing fitness, log relative to wild type (ln ratio); higher = more splicing; Tetrahymena group I intron in knt gene, E. coli kanamycin selection, DiMSum; sequences stand for … in CUCUCU…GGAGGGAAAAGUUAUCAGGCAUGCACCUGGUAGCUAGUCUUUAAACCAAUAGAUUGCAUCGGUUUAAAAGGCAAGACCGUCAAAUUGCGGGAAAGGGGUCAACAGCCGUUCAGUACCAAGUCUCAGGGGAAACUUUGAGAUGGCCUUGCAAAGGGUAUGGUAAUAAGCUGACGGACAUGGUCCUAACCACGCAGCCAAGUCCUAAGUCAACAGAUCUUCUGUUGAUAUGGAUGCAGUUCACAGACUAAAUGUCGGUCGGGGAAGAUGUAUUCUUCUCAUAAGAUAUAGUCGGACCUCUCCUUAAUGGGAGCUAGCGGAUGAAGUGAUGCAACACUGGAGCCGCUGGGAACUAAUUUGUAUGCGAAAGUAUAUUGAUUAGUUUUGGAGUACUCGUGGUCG;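 note: selection with 25 µg/mL kanamycin versus none on LB agar overnight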
# Conditions used: 37 °C
Quantity measured: self-splicing fitness (ln)
# output: bare number, no unit

Solved cases (5 shown):
>>> value_observed("GCCAAGCAAUAUUACGUUCC")
-0.674
>>> value_observed("AUCAAGCAAUAUUACGGACG")
0.117
>>> value_observed("AGCGAGCAAUAUUACGAAGC")
-2.17
>>> value_observed("AAUAAGCAAUAUUACGAACG")
-0.285
>>> value_observed("GCUAAGCAAUAUUACGGGAC")
-1.53

What does the record list as self-splicing fitness (ln) for UACUAGCAAUAUUACGUACG ? -1.31

What does the record list as self-splicing fitness (ln) for ACAAAGCAAUAUUACGGCAU ? 0.328

What does the record list as self-splicing fitness (ln) for GAAGAGCAAUAUUACGGCGA ? -0.931

----------
# Method: self-splicing fitness, log relative to wild type (ln ratio); higher = more splicing; Tetrahymena group I intron in knt gene, E. coli kanamycin selection, DiMSum; sequences stand for … in CUCUCU…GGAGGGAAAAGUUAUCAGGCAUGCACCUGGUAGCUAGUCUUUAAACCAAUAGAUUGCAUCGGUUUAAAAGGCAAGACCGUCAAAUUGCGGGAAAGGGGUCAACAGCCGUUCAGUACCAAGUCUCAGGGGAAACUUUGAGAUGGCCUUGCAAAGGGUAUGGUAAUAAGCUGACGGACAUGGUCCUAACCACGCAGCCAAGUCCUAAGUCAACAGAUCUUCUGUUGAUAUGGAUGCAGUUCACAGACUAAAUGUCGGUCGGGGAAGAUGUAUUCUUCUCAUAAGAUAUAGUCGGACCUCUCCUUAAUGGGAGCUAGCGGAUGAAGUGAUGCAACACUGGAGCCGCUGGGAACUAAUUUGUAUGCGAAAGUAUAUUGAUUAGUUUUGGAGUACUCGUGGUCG
# Conditions used: 37 °C
Would you mind labelling by self-splicing fitness (ln)? At or over -1 is 1.0, under is 0.0.

Please check the record UCGAAGCAAUAUUACGGAAC and state if its self-splicing fitness (ln) is at or above -1. 1.0

Please check the record GCAGAGCAAUAUUACGUUCG and state if its self-splicing fitness (ln) is at or above -1. 0.0

Please check the record GCUCAGCAAUAUUACGCGUC and state if its self-splicing fitness (ln) is at or above -1. 1.0

Please check the record CGGGAGCAAUAUUACGAGAC and state if its self-splicing fitness (ln) is at or above -1. 0.0

Please check the record GUGUAGCAAUAUUACGAUGA and state if its self-splicing fitness (ln) is at or above -1. 1.0

----------
# Method: self-splicing fitness, log relative to wild type (ln ratio); higher = more splicing; Tetrahymena group I intron in knt gene, E. coli kanamycin selection, DiMSum; sequences stand for … in CUCUCU…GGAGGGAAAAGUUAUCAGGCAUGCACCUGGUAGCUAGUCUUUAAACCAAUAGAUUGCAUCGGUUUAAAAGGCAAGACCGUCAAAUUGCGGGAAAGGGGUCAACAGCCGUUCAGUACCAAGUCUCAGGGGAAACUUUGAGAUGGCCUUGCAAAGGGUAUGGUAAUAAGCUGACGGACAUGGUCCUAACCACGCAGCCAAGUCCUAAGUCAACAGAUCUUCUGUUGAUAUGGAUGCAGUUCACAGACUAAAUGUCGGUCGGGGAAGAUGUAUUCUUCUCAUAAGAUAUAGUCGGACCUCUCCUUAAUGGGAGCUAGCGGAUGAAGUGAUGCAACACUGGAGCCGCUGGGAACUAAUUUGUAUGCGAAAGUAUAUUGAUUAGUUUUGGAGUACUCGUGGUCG
# Conditions used: 37 °C
Each entry belongs to exactly one class, chosen by where its self-splicing fitness (ln) falls: low interval = under -2, middle interval = from -2 up to -1, high interval = -1 and over

Band of GGUGAGCAAUAUUACGACGC ? high interval

Band of CCUAAGCAAUAUUACGUACC ? low interval

Band of ACCAAGCAAUAUUACGAUUG ? low interval

Band of GGCCAGCAAUAUUACGUCCA ? high interval

Band of AGAGAGCAAUAUUACGAGCA ? middle interval

Band of AAGCAGCAAUAUUACGUAGA ? middle interval

Band of CGUAAGCAAUAUUACGCACC ? high interval

Band of CGCCAGCAAUAUUACGACAU ? low interval

Band of UACGAGCAAUAUUACGGAGC ? low interval

Band of UACCAGCAAUAUUACGAUAC ? low interval

Band of CUACAGCAAUAUUACGGCGG ? middle interval

Band of CUAGAGCAAUAUUACGUCAC ? middle interval

Band of CCGCAGCAAUAUUACGAUGG ? low interval

Band of AGUCAGCAAUAUUACGUUUA ? middle interval

Band of CAGCAGCAAUAUUACGGCUA ? high interval

Band of AAGGAGCAAUAUUACGCGCA ? high interval

Band of CAUUAGCAAUAUUACGACCU ? middle interval

Band of AUGCAGCAAUAUUACGAGUG ? middle interval

Band of UACCAGCAAUAUUACGCAUA ? high interval

----------
# Method: self-splicing fitness, log relative to wild type (ln ratio); higher = more splicing; Tetrahymena group I intron in knt gene, E. coli kanamycin selection, DiMSum; sequences stand for … in CUCUCU…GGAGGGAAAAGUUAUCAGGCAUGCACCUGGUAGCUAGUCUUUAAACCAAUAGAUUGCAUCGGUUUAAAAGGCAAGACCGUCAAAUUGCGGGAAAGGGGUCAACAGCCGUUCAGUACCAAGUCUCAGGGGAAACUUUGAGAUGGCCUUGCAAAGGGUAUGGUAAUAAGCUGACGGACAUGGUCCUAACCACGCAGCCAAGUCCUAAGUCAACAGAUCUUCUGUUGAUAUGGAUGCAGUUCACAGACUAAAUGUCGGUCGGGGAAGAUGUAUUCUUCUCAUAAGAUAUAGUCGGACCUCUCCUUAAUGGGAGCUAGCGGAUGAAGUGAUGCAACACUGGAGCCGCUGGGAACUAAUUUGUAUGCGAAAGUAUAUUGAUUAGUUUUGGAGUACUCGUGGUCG
# Conditions used: 37 °C
List of self-splicing fitness (ln) values.

Solved cases (5 shown):
>>> value_observed("AGAGAGCAAUAUUACGGUGC")
-2.07
>>> value_observed("CACUAGCAAUAUUACGGAUG")
-1.39
>>> value_observed("CGAGAGCAAUAUUACGAAGG")
-2.69
>>> value_observed("UUCGAGCAAUAUUACGUGGA")
-2.58
>>> value_observed("UAUUAGCAAUAUUACGCGCU")
-0.558

What does the record list as self-splicing fitness (ln) for CAUGAGCAAUAUUACGUUUG ? -2.89

What does the record list as self-splicing fitness (ln) for UCAAAGCAAUAUUACGAACG ? -0.646

What does the record list as self-splicing fitness (ln) for UCGGAGCAAUAUUACGGACG ? 0.113

What does the record list as self-splicing fitness (ln) for GAUCAGCAAUAUUACGGUGC ? -0.734

----------
# Method: self-splicing fitness, log relative to wild type (ln ratio); higher = more splicing; Tetrahymena group I intron in knt gene, E. coli kanamycin selection, DiMSum; sequences stand for … in CUCUCU…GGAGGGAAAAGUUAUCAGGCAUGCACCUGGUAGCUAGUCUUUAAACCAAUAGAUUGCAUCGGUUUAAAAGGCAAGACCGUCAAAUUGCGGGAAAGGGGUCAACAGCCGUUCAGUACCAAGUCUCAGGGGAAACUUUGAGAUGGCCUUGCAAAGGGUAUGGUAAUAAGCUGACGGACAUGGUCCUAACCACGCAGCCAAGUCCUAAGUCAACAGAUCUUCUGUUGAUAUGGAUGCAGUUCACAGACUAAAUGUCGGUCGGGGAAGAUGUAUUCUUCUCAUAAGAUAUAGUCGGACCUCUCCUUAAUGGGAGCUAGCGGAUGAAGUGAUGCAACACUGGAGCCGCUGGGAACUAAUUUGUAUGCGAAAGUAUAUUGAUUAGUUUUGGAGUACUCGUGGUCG
# Conditions used: 30 °C
List of self-splicing fitness (ln) values.
# output: bare number, no unit

What does the record list as self-splicing fitness (ln) for UACGAGCAAUAUUACGACCA ? -1.71

What does the record list as self-splicing fitness (ln) for GUUCAGCAAUAUUACGCCUU ? -0.418

What does the record list as self-splicing fitness (ln) for GCCGAGCAAUAUUACGUACA ? -2.85

What does the record list as self-splicing fitness (ln) for AAAGAGCAAUAUUACGGUAC ? -4.14

What does the record list as self-splicing fitness (ln) for UCCAAGCAAUAUUACGGUUG ? -3.43

What does the record list as self-splicing fitness (ln) for AGCUAGCAAUAUUACGACAG ? -2.36

What does the record list as self-splicing fitness (ln) for ACUUAGCAAUAUUACGGGUG ? -1.14

What does the record list as self-splicing fitness (ln) for AGACAGCAAUAUUACGCAGG ? -3.5

What does the record list as self-splicing fitness (ln) for UGCCAGCAAUAUUACGCAGG ? -4.43

What does the record list as self-splicing fitness (ln) for CGUCAGCAAUAUUACGUAAC ? -3.29
